Assignment: determine reported pIC50 for the given compounds.
tested on: Saccharomyces cerevisiae lifespan shortening, growth inhibition; test: yeast lifespan shortening compounds, dose response (AID 849);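 also: yeast growth read as optical density after two days at 30 degrees C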
Friendly reminder that pIC50 comes from taking -log10 of the concentration in mol/L.

stdin: Quick one: pIC50 for COc1ccc(/C=C/C(=O)c2cc(Br)ccc(=O)c2O)cc1 ?
stdout: 4.90

stdin: Let us now turn to CCc1ccc(/C=C/C(=O)c2cc(Br)ccc(=O)c2O)cc1
stdout: 5.00

stdin: Let us now turn to CCCCCCCOC(=O)C[N+](C)(C)CCOC1CC2CCC1(C)C2(C)C (configuration not stated)
stdout: 4.55

stdin: Let us now turn to Cc1ccc(N=Nc2ccc(O)c3ncccc23)cc1
stdout: 4.46

stdin: Let us now turn to Oc1ccc(Cl)cc1Cc1cc(Cl)ccc1O
stdout: 4.68

stdin: Let us now turn to CCCCCCCCCCn1c2c(c(=N)c3c1CCC3)CCC2
stdout: 5.04

stdin: Let us now turn to O=c1cccc2n1Cc1cc3ccccc3nc1-2
stdout: 4.53
